Tested on: Ba/F3 EGFR ASV ins cells
Assay: Cell proliferation, Ba/F3 EGFR ASV ins (CellTiter-Glo, 72 h);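 note: IL3-independent Ba/F3 cells transduced with EGFR V769_D770insASV, cellular ATP luminescence after compound exposure, growth relative to DMSO control with the day-0 baseline reading subtracted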
Format: cell-based
Details: Ba/F3 EGFR, 72 h, Ba/F3 EGFR ASV ins, 72 h proliferation; read-out: EGFR Exon20 ASV insertion GI50
Structures can show the parent of a compound that is named as a salt.
Listed compounds paired with reported GI50
Result type: GI50

[[record]]
compound = "C=CC(=O)Nc1cc(Nc2nccc(Nc3cc(Cl)c(F)cc3C(C)(C)O)n2)c(OC)cc1N1CC[C@@H](NC)C1 [Compound 80, TFA salt]"
result_type = "GI50"
test_value = "177 nM"

[[record]]
compound = "C=CC(=O)Nc1cc(Nc2ncnc(Nc3cnc(C)cc3C(C)(C)O)n2)c(OC)cc1N(C)CCN(C)C"
result_type = "GI50"
test_value = "250 nM"

[[record]]
compound = "C=CC(=O)Nc1cc(Nc2ncnc(Nc3cc(Cl)c(Cl)cc3C(C)(C)O)n2)c(OC)cc1N1CC[C@@H](N(C)C)C1"
result_type = "GI50"
test_value = "25.6 nM"

[[record]]
compound = "C=CC(=O)Nc1cc(Nc2ncnc(Nc3ccc(C(F)(F)F)cc3C(C)(C)O)n2)c(OC)cc1N(C)CCN(C)C"
result_type = "GI50"
test_value = "53.3 nM"

